Tested on: HEK293
Experiment: Cytotoxicity against human HEK293 cells after 48 hrs by MTT assay
Assay type: cell-based
Details: HEK293, 48 h
pIC50: −log10 of the molar value.
Reported pIC50 values are given for each entry in this list.
MEASUREMENT NAME: pIC50

{"MOLECULE": "Cc1noc2c1N=C(c1ccco1)CC(c1cc(Cc3ccc(O)c(C4CC(c5ccco5)=Nc5c(C)noc5C4)c3)ccc1O)C2 (centres undefined)", "MEASUREMENT NAME": "pIC50", "READOUT VALUE": 4.52}
{"MOLECULE": "Cc1noc2c1N=C(c1ccc(Br)cc1)CC(c1cc(Cc3ccc(O)c(C4CC(c5ccc(Br)cc5)=Nc5c(C)noc5C4)c3)ccc1O)C2 (centres undefined)", "MEASUREMENT NAME": "pIC50", "READOUT VALUE": 4.26}
{"MOLECULE": "Cc1noc2c1N=C(c1ccc(Cl)cc1)CC(c1cc(Cc3ccc(O)c(C4CC(c5ccc(Cl)cc5)=Nc5c(C)noc5C4)c3)ccc1O)C2 (centres undefined)", "MEASUREMENT NAME": "pIC50", "READOUT VALUE": 4.27}
{"MOLECULE": "Cc1noc2c1N=C(c1ccccc1)CC(c1cc(Cc3ccc(O)c(C4CC(c5ccccc5)=Nc5c(C)noc5C4)c3)ccc1O)C2 (centres undefined)", "MEASUREMENT NAME": "pIC50", "READOUT VALUE": 4.07}

* * *

Tested on: Aspergillus flavus
Assay: Antifungal activity against Aspergillus flavus after 5 days by agar diffusion method
Format: functional
Conditions: 120 h
Response field label takes Met when MIC is strictly below 30 µg/mL and Not met in all other cases.

{"MOLECULE": "Cc1noc2c1N=C(c1cccs1)CC(c1cc(Cc3ccc(O)c(C4CC(c5cccs5)=Nc5c(C)noc5C4)c3)ccc1O)C2 (centres undefined)", "ASSIGNED CLASS": "Met"}
{"MOLECULE": "Cc1ccc(C2=Nc3c(C)noc3CC(c3cc(Cc4ccc(O)c(C5CC(c6ccc(C)cc6)=Nc6c(C)noc6C5)c4)ccc3O)C2)cc1 (centres undefined)", "ASSIGNED CLASS": "Not met"}
{"MOLECULE": "Cc1noc2c1N=C(c1ccccc1O)CC(c1cc(Cc3ccc(O)c(C4CC(c5ccccc5O)=Nc5c(C)noc5C4)c3)ccc1O)C2 (centres undefined)", "ASSIGNED CLASS": "Not met"}
{"MOLECULE": "Cc1noc2c1N=C(c1ccc(Cl)cc1)CC(c1cc(Cc3ccc(O)c(C4CC(c5ccc(Cl)cc5)=Nc5c(C)noc5C4)c3)ccc1O)C2 (centres undefined)", "ASSIGNED CLASS": "Not met"}
{"MOLECULE": "COc1ccc(C2=Nc3c(C)noc3CC(c3cc(Cc4ccc(O)c(C5CC(c6ccc(OC)cc6)=Nc6c(C)noc6C5)c4)ccc3O)C2)cc1 (centres undefined)", "ASSIGNED CLASS": "Not met"}
{"MOLECULE": "Cc1noc2c1N=C(c1ccco1)CC(c1cc(Cc3ccc(O)c(C4CC(c5ccco5)=Nc5c(C)noc5C4)c3)ccc1O)C2 (centres undefined)", "ASSIGNED CLASS": "Met"}
{"MOLECULE": "Cc1noc2c1N=C(c1ccccc1)CC(c1cc(Cc3ccc(O)c(C4CC(c5ccccc5)=Nc5c(C)noc5C4)c3)ccc1O)C2 (centres undefined)", "ASSIGNED CLASS": "Not met"}
